Some compounds, each annotated with its measured MIC.
test system: Pseudomonas aeruginosa ATCC 27853; assay: Broth microdilution MIC; assay type: cell-based; details: Pseudomonas aeruginosa, ATCC27853, read-out: Minimum Inhibitory Concentrations (MIC)

Worked set:
In [3]: df
Out[3]:
                                   compound                      tested_target  data_value
0  O=C1C[N+]2(CCCC[N+]34CCC(CC3)C(=O)C4)CCC1CC2 [2(QO)4]  Pseudomonas aeruginosa ATCC 27853     > 75 µM
1  O=C1C[N+]2(CCC[N+]34CCC(CC3)C(=O)C4)CCC1CC2 [2(QO)3]  Pseudomonas aeruginosa ATCC 27853     > 75 µM
2  CCCCCCCCCCCCCCCCNC1C[N+]2(CCCCCC[N+]34CCC(CC3)C(NCCCCCCCCCCCCCCCC)C4)CCC1CC2 (racemic) [2(QC16)6]  Pseudomonas aeruginosa ATCC 27853     > 75 µM
3  CCCCCCCCCCCCCCCCNC1C[N+]2(CCCC[N+]34CCC(CC3)C(NCCCCCCCCCCCCCCCC)C4)CCC1CC2 (racemic) [2(QC16)4]  Pseudomonas aeruginosa ATCC 27853     > 75 µM
4  CCCCCCCCCCCCCCNC1C[N+]2(CCC[N+]34CCC(CC3)C(NCCCCCCCCCCCCCC)C4)CCC1CC2 (racemic) [2(QC14)3]  Pseudomonas aeruginosa ATCC 27853     > 75 µM
5  CCCCCCCCCCCCCCCCNC1C[N+]2(CCC[N+]34CCC(CC3)C(NCCCCCCCCCCCCCCCC)C4)CCC1CC2 (racemic) [2(QC16)3]  Pseudomonas aeruginosa ATCC 27853     > 75 µM
6  O=C1C[N+]2(CCCCCC[N+]34CCC(CC3)C(=O)C4)CCC1CC2 [2(QO)6]  Pseudomonas aeruginosa ATCC 27853     > 75 µM
7  CCCCCCCCCCCCNC1C[N+]2(CCCCCC[N+]34CCC(CC3)C(NCCCCCCCCCCCC)C4)CCC1CC2 (racemic) [2(QC12)6]  Pseudomonas aeruginosa ATCC 27853     > 75 µM
8  CCCCCCCCCCCCCCNC1C[N+]2(CCCC[N+]34CCC(CC3)C(NCCCCCCCCCCCCCC)C4)CCC1CC2 (racemic) [2(QC14)4]  Pseudomonas aeruginosa ATCC 27853     > 75 µM
9  CCCCCCCCCCCCCCNC1C[N+]2(CCCCCC[N+]34CCC(CC3)C(NCCCCCCCCCCCCCC)C4)CCC1CC2 (racemic) [2(QC14)6]  Pseudomonas aeruginosa ATCC 27853     > 75 µM

So what does the record say about MIC for CCCCCCCCCCCCNC1C[N+]2(CCC[N+]34CCC(CC3)C(NCCCCCCCCCCCC)C4)CCC1CC2 (racemic) [2(QC12)3] ?
> 75 µM

Name the recorded MIC for CCCCCCCCCCCCNC1C[N+]2(CCCC[N+]34CCC(CC3)C(NCCCCCCCCCCCC)C4)CCC1CC2 (racemic) [2(QC12)4] .
> 75 µM

---

tested on: Listeria monocytogenes ATCC 7644
Catalogue of MIC values
Give the value, in units of µM, as a plain number.

Here are 7 compounds together with their reported answers.
>>> df
                                   compound  data_value
0  CCCCCCCCCCCCNC1C[N+]2(CCCC[N+]34CCC(CC3)C(NCCCCCCCCCCCC)C4)CCC1CC2 (racemic)          75
1  CCCCCCCCCCCCCCCCNC1C[N+]2(CCC[N+]34CCC(CC3)C(NCCCCCCCCCCCCCCCC)C4)CCC1CC2 (racemic)           9
2  CCCCCCCCCCCCCCCCNC1C[N+]2(CCCC[N+]34CCC(CC3)C(NCCCCCCCCCCCCCCCC)C4)CCC1CC2 (racemic)           9
3  CCCCCCCCCCCCCCNC1C[N+]2(CCCCCC[N+]34CCC(CC3)C(NCCCCCCCCCCCCCC)C4)CCC1CC2 (racemic)          19
4  CCCCCCCCCCCCNC1C[N+]2(CCCCCC[N+]34CCC(CC3)C(NCCCCCCCCCCCC)C4)CCC1CC2 (racemic)          38
5  CCCCCCCCCCCCCCCCNC1C[N+]2(CCCCCC[N+]34CCC(CC3)C(NCCCCCCCCCCCCCCCC)C4)CCC1CC2 (racemic)          38
6  CCCCCCCCCCCCNC1C[N+]2(CCC[N+]34CCC(CC3)C(NCCCCCCCCCCCC)C4)CCC1CC2 (racemic)          38

Please examine the following record next.
Item under review: CCCCCCCCCCCCCCNC1C[N+]2(CCC[N+]34CCC(CC3)C(NCCCCCCCCCCCCCC)C4)CCC1CC2 (racemic) . Reported MIC?
38

---

system: Staphylococcus aureus ATCC 33591 (methicillin-resistant); assay: Broth microdilution MIC; type: cell-based; details: Staphylococcus aureus, ATCC33591, read-out: Minimum Inhibitory Concentrations (MIC)
ASSAY_METRIC: MIC (µM)
Please give a number only; it is taken to be in µM.

In [3]: df
Out[3]:
                                   molecule  data_value
0  CCCCCCCCCCCCNC1C[N+]2(CCC[N+]34CCC(CC3)C(NCCCCCCCCCCCC)C4)CCC1CC2 (racemic) [2(QC12)3]          75
1  CCCCCCCCCCCCCCNC1C[N+]2(CCCC[N+]34CCC(CC3)C(NCCCCCCCCCCCCCC)C4)CCC1CC2 (racemic) [2(QC14)4]          75
2  CCCCCCCCCCCCCCCCNC1C[N+]2(CCCCCC[N+]34CCC(CC3)C(NCCCCCCCCCCCCCCCC)C4)CCC1CC2 (racemic) [2(QC16)6]           5
3  CCCCCCCCCCCCCCNC1C[N+]2(CCC[N+]34CCC(CC3)C(NCCCCCCCCCCCCCC)C4)CCC1CC2 (racemic) [2(QC14)3]          75

Please find the next molecule below.
I'm curious: which MIC was measured for CCCCCCCCCCCCCCNC1C[N+]2(CCCCCC[N+]34CCC(CC3)C(NCCCCCCCCCCCCCC)C4)CCC1CC2 (racemic) [2(QC14)6] tested on Staphylococcus aureus ATCC 33591 (methicillin-resistant)?
19

---

Entries below carry reported MIC on Enterococcus faecalis ATCC 29212.

Record lookup: for Enterococcus faecalis ATCC 29212, what MIC belongs to CCCCCCCCCCCCCCNC1C[N+]2(CCCCCC[N+]34CCC(CC3)C(NCCCCCCCCCCCCCC)C4)CCC1CC2 (racemic) ?
38 µM

Request: MIC, test system Enterococcus faecalis ATCC 29212, entry CCCCCCCCCCCCNC1C[N+]2(CCCC[N+]34CCC(CC3)C(NCCCCCCCCCCCC)C4)CCC1CC2 (racemic)
> 75 µM

Please tell me: MIC of O=C1C[N+]2(CCC[N+]34CCC(CC3)C(=O)C4)CCC1CC2 , system Enterococcus faecalis ATCC 29212?
> 75 µM

// map CCCCCCCCCCCCCCNC1C[N+]2(CCCC[N+]34CCC(CC3)C(NCCCCCCCCCCCCCC)C4)CCC1CC2 (racemic) to recorded MIC (system: Enterococcus faecalis ATCC 29212)
> 75 µM

---

system: Staphylococcus aureus ATCC 33591 (methicillin-resistant); experiment: Broth microdilution MIC; type: cell-based; conditions: Staphylococcus aureus, ATCC33591, read-out: Minimum Inhibitory Concentrations (MIC)
ASSAY_METRIC: MIC

                                chem_smiles                             tested_target  assay_metric  data_value
0  O=C1C[N+]2(CCCCCC[N+]34CCC(CC3)C(=O)C4)CCC1CC2  Staphylococcus aureus ATCC 33591 (methicillin-resistant)           MIC     > 75 µM
1  O=C1C[N+]2(CCC[N+]34CCC(CC3)C(=O)C4)CCC1CC2  Staphylococcus aureus ATCC 33591 (methicillin-resistant)           MIC     > 75 µM

Value lookup for MIC; key = O=C1C[N+]2(CCCC[N+]34CCC(CC3)C(=O)C4)CCC1CC2
> 75 µM

These measurements were taken from paper PMC12473123.
